From: ChEMBL document CHEMBL4819038

- Tgt: Toll-like receptor 2 (Homo sapiens)
- Test details: Antagonist activity at human TLR2 expressed in HEK-Blue cells assessed as inhibition of Pam3CSK4-induced TLR2/TLR1 activation by measuring decrease in NFkappaB activation pretreated for 2 hrs followed by incubation with agonist for 18 hrs by SEAP assay
- Format: cell-based, HEK-Blue hTLR2
Please go through the items and note down their pIC50.
Answers are plain numbers, as −log10 of the molar value.

Record excerpt, results attached:
molecule="CCCCCCCCCCCCCCOCC(CNC(=O)CC[C@H](NC(=O)OCC1c2ccccc2-c2ccccc21)C(=O)O)OCCCCCCCCCCCCCC (stereo not given in full)" measured_parameter=pIC50 readout_number=5.06
molecule="CCCCCCCCCCCCCCOCC(CNC(=O)[C@H](CCCCN)NCc1ccc(F)cc1)OCCCCCCCCCCCCCC (stereo not given in full)" measured_parameter=pIC50 readout_number=5.54
molecule="CCCCCCCCCCCCCCOCC(CNC(=O)[C@H]1CCCN1)OCCCCCCCCCCCCCC (stereo not given in full)" measured_parameter=pIC50 readout_number=4.84

// below: pIC50 requested for another molecule
What reported pIC50 corresponds to CCCCCCCCCCCCCCOCC(CNC(=O)C(CC1CCNCC1)NC(=O)OCC1c2ccccc2-c2ccccc21)OCCCCCCCCCCCCCC (stereo not given) on Toll-like receptor 2 (Homo sapiens)?
5.74

====

Please go through the items and note down their IC50.
- Tgt: Toll-like receptor 2 (Homo sapiens, UniProt O60603)
- Sequence (O60603 whole entry): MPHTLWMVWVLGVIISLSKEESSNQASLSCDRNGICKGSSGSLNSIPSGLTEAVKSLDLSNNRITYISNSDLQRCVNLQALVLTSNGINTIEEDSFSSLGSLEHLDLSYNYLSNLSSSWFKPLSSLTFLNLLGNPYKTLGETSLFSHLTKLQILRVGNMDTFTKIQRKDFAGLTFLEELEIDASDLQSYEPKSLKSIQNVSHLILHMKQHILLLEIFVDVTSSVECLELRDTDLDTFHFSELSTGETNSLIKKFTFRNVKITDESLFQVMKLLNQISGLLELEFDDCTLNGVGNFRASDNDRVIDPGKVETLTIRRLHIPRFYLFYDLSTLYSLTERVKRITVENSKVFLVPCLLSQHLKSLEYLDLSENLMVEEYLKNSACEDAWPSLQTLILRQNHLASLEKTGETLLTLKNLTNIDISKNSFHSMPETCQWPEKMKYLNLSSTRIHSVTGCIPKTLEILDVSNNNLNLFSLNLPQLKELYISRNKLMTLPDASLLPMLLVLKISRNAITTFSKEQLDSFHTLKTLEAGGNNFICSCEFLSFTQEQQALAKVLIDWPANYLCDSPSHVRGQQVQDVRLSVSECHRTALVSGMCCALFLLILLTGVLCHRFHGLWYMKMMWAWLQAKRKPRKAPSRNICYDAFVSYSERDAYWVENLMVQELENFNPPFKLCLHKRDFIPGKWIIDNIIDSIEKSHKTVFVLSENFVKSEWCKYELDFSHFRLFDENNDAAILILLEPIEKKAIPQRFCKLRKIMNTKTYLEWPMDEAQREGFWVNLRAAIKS
- Test details: Antagonist activity at human TLR2 expressed in HEK-Blue cells assessed as inhibition of Pam3CSK4-induced TLR2/TLR1 activation by measuring decrease in NFkappaB activation pretreated for 2 hrs followed by incubation with agonist for 18 hrs by SEAP assay
- Type: cell-based, HEK-Blue hTLR2
Answers are plain numbers, in µM.

Record excerpt, results attached:
compound=CCCCCCCCCCCCCCNC(=O)[C@H](CCCCN)NCc1ccccc1 readout_number=14.5
compound="CCCCC/C=C\\C/C=C\\CCCCCCCCOCC(CNC(=O)c1cccc(C2CCNCC2)c1)OCCCCCCCC/C=C\\C/C=C\\CCCCC (centres undefined)" readout_number=3.3
compound="CCCCCCCCCCCCCCOCC(CNC(=O)[C@@H](CCCCN)NC(=O)OCc1ccccc1)OCCCCCCCCCCCCCC (some centres undefined)" readout_number=2.3

Find the recorded IC50 belonging to CCCCCCCCCCCCCCOCC(CNC(=O)[C@H](CCCCN)NCc1ccc(-c2ccccc2)cc1)OCCCCCCCCCCCCCC (some centres undefined) and report it.
2.8

====

Please go through the items and note down their IC50.
- Tgt: UniProtKB O60603
- Test details: Antagonist activity at human TLR2 expressed in HEK-Blue cells assessed as inhibition of Pam3CSK4-induced TLR2/TLR1 activation by measuring decrease in NFkappaB activation pretreated for 2 hrs followed by incubation with agonist for 18 hrs by SEAP assay
- Format: cell-based, HEK-Blue hTLR2
One number for each entry, in µM.

Record excerpt, results attached:
compound="CCCCCCCCCCCCCCOCC(CNC(=O)C1(NC(=O)OCc2ccccc2)CCNCC1)OCCCCCCCCCCCCCC (stereo not given)" measured_parameter=IC50 readout_number=2.6
compound=CCCCCCCOCCNC(=O)[C@H](CCCCN)NCc1ccccc1 measured_parameter=IC50 readout_number=22.6
compound="CCCCCCCCCCCCCCOCC(CNC(=O)[C@H](CCCCN)NC(=O)OCC1c2ccccc2-c2ccccc21)OCCCCCCCCCCCCCC (stereo not given in full)" measured_parameter=IC50 readout_number=1.6

// below: IC50 requested for another compound
Find the recorded IC50 belonging to CCCCC/C=C\CCCCCCCOCC(CNC(=O)c1cccc(C2CCNCC2)c1)OCCCCCCC/C=C\CCCCC (stereo not given) and report it.
18.5
